# Test system: biotinyl-Ile-oxazolone
# testName: self-aminoacylation, catalytic enhancement (BIO) (fold over background); higher = more active; k-Seq, kA / k0A0; sequences stand for … in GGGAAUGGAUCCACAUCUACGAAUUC…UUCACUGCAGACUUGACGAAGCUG
Fewer inactive variants are shown than the library holds.
Reported self-aminoacylation is given for each of the following sequences.
Enter a number only.

Use the examples below as a reference point.
orderedResidues: CUACUUCCACCAAUCGGUCUG [Fam1A.1 aminoacylation ribozyme variant]
self-aminoacylation: 0.912
//
orderedResidues: AUUACCCUUGUCACCGAGUGA [Fam2.1 aminoacylation ribozyme variant]
self-aminoacylation: 4.01
//
orderedResidues: AAGUUUGCUUAUUGUCGCAAG [Fam3.1 aminoacylation ribozyme variant]
self-aminoacylation: 0.771

Prompt line: Annotate the sequence AUGACCCUGGGCAUCGAGUGA [Fam2.1 aminoacylation ribozyme variant] with its measured self-aminoacylation.
Response line: 3.97

Prompt line: Annotate the sequence AAGGUUGCUAAUCGUCGCAAG [Fam3.1 aminoacylation ribozyme variant] with its measured self-aminoacylation.
Response line: 1.27
